Answer each item with its documented pEC50.
Biological target: T1, cynomolgus monkey (Macaca fascicularis) transferrin receptor 1 (cynomolgus monkey (Macaca fascicularis), UniProt Q5RDH6 89-760 (Pongo abelii entry), limits assumed)
T1 construct: Recombinant protein used in ELISA and SPR; also called cTfR1; cyno TfR1
T1 chain: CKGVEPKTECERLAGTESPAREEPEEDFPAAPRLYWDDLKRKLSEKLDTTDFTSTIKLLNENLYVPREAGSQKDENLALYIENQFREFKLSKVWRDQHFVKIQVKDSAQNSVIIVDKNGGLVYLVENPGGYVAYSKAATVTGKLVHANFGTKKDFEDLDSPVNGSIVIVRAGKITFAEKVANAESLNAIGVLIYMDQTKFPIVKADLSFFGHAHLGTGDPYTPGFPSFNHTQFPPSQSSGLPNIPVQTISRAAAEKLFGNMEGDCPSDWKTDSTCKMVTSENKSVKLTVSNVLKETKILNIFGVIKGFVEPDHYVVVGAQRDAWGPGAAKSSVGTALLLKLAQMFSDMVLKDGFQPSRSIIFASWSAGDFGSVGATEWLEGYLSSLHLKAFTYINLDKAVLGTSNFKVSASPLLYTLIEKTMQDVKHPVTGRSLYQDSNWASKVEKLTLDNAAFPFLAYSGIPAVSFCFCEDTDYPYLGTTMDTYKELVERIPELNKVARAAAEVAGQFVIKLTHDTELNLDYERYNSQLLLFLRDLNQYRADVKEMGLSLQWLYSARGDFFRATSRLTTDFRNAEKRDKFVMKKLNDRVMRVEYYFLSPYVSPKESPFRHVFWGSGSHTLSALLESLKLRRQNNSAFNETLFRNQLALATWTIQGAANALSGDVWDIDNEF
Assay: ELISA, plate-coated cyno TfR1, Fab-ASO300 conjugate; printed as 'Conjugate binding affinity ELISA'
Numbers only, as −log10 of the molar value.

3A4 (VH3/Vk4) Fab conjugated to DMPK-targeting oligonucleotide ASO300 (Fab, V domains shown, Fab covalently conjugated to ASO300; also called 3A4 (VH3/Vk4) conjugate) VH: EVQLVQSGSELKKPGASVKVSCTASGFNIKDDYMYWVRQPPGKGLEWIGWIDPENGDTEYASKFQDRVTVTADTSTNTAYMELSSLRSEDTAVYYCTLWLRRGLDYWGQGTLVTVSS VL: DIVMTQSPLSLPVTPGEPASISCRSSKSLLHSNGYTYLFWFQQRPGQSPRLLIYRMSNLASGVPDRFSGSGSGTDFTLKISRVEAEDVGVYYCMQHLEYPFTFGGGTKVEIKR ... 8.12

For each of the binders below, state pEC50.
1. 3M12 (VH4/Vk3) Fab conjugated to DMPK-targeting oligonucleotide ASO300 (Fab, V domains shown, Fab covalently conjugated to ASO300; also called 3M12 (VH4/Vk3) conjugate; DMPK oligo conjugate) VH: QVQLQESGPGLVKPSQTLSLTCTVTGYSITSGYYWNWIRQPPGKGLEWIGYITFDGANNYNPSLKNRVSISRDTSKNQFSLKLSSVTAEDTATYYCTRSSYDYDVLDYWGQGTTVTVSS VL: DIQMTQSPSSLSASVGDRVTITCRASQDISNFLNWYQQKPGQPVKLLIYYTSRLHSGVPSRFSGSGSGTDFTLTISSLQPEDFATYYCQQGHTLPYTFGQGTKLEIKR
2. 3A4 (VH3-N54S/Vk4) Fab conjugated to DMPK-targeting oligonucleotide ASO300 (Fab, V domains shown, Fab covalently conjugated to ASO300; also called 3A4 (VH3-N54S/Vk4) conjugate) VH: EVQLVQSGSELKKPGASVKVSCTASGFNIKDDYMYWVRQPPGKGLEWIGWIDPESGDTEYASKFQDRVTVTADTSTNTAYMELSSLRSEDTAVYYCTLWLRRGLDYWGQGTLVTVSS VL: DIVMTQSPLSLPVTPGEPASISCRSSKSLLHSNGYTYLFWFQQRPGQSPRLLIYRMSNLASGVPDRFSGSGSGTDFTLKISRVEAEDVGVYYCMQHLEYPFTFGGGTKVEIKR

a:
[8.68, 8.11]
